Biological target: large-conductance Ca2+-activated K+ (BKCa) channel (IK(Ca)) (Rattus norvegicus)
Construct: native channel in GH3 pituitary cells
Sequence (Q62976 whole entry): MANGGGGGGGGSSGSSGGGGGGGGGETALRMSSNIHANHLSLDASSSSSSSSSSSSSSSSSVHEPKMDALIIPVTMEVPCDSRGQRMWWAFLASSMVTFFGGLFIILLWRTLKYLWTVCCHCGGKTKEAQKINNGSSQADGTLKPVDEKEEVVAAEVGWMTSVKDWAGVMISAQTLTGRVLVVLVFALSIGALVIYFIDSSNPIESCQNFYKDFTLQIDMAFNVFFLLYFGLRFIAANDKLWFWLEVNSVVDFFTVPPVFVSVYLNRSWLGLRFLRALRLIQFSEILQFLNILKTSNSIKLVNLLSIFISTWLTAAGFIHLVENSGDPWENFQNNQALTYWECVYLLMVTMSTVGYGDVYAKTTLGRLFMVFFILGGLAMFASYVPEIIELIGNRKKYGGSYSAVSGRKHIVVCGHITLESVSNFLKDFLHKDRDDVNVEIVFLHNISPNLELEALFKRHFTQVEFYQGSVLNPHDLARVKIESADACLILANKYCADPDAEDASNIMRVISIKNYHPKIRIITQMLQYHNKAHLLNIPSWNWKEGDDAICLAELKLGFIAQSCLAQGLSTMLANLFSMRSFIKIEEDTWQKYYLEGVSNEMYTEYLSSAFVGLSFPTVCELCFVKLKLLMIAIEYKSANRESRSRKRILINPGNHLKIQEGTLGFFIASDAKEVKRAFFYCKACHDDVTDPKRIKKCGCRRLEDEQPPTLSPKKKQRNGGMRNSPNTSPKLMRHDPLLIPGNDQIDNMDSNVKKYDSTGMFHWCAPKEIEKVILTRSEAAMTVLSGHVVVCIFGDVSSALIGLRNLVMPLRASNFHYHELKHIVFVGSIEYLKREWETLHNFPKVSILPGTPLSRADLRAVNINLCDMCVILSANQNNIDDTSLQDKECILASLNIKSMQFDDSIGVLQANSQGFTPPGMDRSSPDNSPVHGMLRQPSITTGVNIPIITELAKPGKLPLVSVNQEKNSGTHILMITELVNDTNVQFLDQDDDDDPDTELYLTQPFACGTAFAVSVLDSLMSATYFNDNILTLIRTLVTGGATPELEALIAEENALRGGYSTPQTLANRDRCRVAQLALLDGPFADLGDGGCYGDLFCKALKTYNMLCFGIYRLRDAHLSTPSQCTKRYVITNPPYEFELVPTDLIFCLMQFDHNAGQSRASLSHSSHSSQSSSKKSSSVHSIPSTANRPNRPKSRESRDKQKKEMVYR
Assay: whole-cell patch clamp of IK(Ca), concentration-response; reversed by verruculogen
PARAMETER MEASURED: pEC50
Give bare numbers, as −log10 of the molar value.

Per the records, this compound ( COc1cc(/C=C/c2ccc(O)cc2)cc(OC)c1 [PTER, trans-3,5-dimethoxy-4′-hydroxystilbene] ) has pEC50 equal to 5.65
